We begin with a simple list: items and their reported pEC50.
Molecular target: T1, human TNFR2 overexpressed on CHO-S cells (CHOS-hTNFR2) (human, UniProt P20333 23-461)
T1 construct: also called hTNFR2 CHO-S; human TNFR2 molecule overexpressed on CHO-S cells
T1 sequence: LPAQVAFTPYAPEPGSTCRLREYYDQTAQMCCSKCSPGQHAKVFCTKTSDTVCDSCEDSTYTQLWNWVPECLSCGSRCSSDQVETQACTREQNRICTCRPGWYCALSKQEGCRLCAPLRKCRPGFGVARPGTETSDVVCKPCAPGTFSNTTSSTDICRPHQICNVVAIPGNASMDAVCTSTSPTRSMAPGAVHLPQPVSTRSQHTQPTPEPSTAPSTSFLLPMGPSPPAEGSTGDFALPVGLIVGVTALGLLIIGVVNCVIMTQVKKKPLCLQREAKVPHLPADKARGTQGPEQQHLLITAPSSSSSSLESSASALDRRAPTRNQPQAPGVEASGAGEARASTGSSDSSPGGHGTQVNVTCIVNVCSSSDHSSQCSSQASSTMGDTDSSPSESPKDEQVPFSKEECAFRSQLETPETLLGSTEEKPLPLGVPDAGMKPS
Test: flow cytometry on CHO-S cells overexpressing human TNFR2 (humanized antibodies), MFI-FL2A; unit taken from the axis Conc log(nM)
Schema: pEC50 number; meaning minus log10 of the concentration expressed in molar units.

Some entries whose results are on file:
>>> result("humanized antibody hz69B1.11 (antibody, human IgG1, kappa, V domains shown) VH: QVQLVQSGAEVKKPGASVKVSCKASGYTFTDYSMNWVRQAPGQRLEWMGWLNTETGEPIYADDFKGRVTITRDTSASTAYMELSSLRSEDTAVYYCAREAIYYGTSYVLDYWGQGTLVTVSS VL: DIVLTQSPASLAVSPGQRATITCRASESVEYYGTNFMQWYQQKPGQPPKLLIYSASNVESGVPARFSGSGSGTDFTLTINPVEAQDTANYFCQQSRKDPSTFGQGTKLEIKR")
9.44
>>> result("humanized antibody hz69B1.20 (antibody, human IgG1, kappa, V domains shown) VH: QIQLVQSGSELKKPGASVKVSCKASGYTFTDYSMNWVRQAPGQGLEWMGWLNTETGEPIYADDFKGRFVFSLDTSVSTAYLQISSLKAEDTAVYFCAREAIYYGTSYVLDYWGQGTLVTVSS VL: DIVLTQSPASLAVSPGQRATITCRASESVEYYGTNFMQWYQQKPGQPPKLLIYSASNVESGVPARFSGSGSGTDFTLTINPVEAQDTANYFCQQSRKDPSTFGQGTKLEIKR")
9.38

### Prompt # query: pEC50 of entry humanized antibody hz69B1.5 (antibody, human IgG1, kappa, V domains shown) VH: QIQLVQSGSELKKPGASVKVSCKASGYTFTDYSMNWVRQAPGQGLEWMGWLNTETGEPIYADDFKGRFVFSLDTSVSTAYLQISSLKAEDTAVYFCAREAIYYGTSYVLDYWGQGTLVTVSS VL: DIVLTQSPASLAVSPGQRATITCRASESVEYYGTNFMQWYQQKPGQPPKLLIYSASNVESGVPARFSGSGSGTDFTLTINPVEANDTANYYCQQSRKDPSTFGQGTKLEIKR
### Response 9.37
